# target-desc: T1, human GPVI protein, soluble extracellular domain (D1 and D2) (human, UniProt Q9HCN6 21-267)
# T1 construct: extracellular domain; also called hGPVI; human glycoprotein VI
# T1 sequence (looked up): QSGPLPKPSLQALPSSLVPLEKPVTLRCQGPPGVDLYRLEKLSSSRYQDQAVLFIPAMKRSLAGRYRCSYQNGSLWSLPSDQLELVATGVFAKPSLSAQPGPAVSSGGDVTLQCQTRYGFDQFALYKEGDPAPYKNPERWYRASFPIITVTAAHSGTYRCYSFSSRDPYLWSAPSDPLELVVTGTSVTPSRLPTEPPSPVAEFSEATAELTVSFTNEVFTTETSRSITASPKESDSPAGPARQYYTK
# assay-method-text: SPR (Biacore 3000), human GPVI immobilised, Fab analyte
value-type: kon

binder: humanized anti-GPVI Fab VL1/VH2 (Fab, V domains shown, Recombinant Fab: VH fused to CH1 of human IGHG1 (Q569F4), HC ends in DKTHT; VL fused to human constant kappa (Q502W4); also called VL1 with VH2) VH: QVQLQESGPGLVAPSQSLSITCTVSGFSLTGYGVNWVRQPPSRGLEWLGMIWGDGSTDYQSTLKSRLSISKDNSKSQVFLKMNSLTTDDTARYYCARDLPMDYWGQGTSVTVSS VL: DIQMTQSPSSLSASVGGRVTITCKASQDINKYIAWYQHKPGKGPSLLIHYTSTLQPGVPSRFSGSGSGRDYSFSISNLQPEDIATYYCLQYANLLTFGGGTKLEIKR
reported-result: 113000 M⁻¹ s⁻¹

binder: Fab 390-nG (recombinant non-glycosylated Fab of clone 390) (Fab, V domains shown, Chimeric Fab from HEK293: VL fused to human constant kappa (IGKC, Q502W4); also called ANTI-GPVI Fab 390-nG construct) VH: QVQLKESGPGLVAPSQSLSITCTVSGFSLTGYGVNWVRQPPGKGLEWLGMIWGDGSTDYQSTLKSRLSISKDNSKSQVFLKMNSLQTDDTARYYCARDLPMDYWGQGTSVTVSS VL: DIQMTQSPSSLSASLGGKVTITCKASQDINKYIAWYQHKPGKGPSLLIHYTSTLQPGIPSRFSGSGSGRDYSFSISNLEPEDIATYYCLQYANLLTFGGGTKLEIKR
reported-result: 102000 M⁻¹ s⁻¹

binder: humanized anti-GPVI Fab VL2/VH2 (Fab, V domains shown, Recombinant Fab: VH fused to CH1 of human IGHG1 (Q569F4), HC ends in DKTHT; VL fused to human constant kappa (Q502W4); also called VL2 with VH2) VH: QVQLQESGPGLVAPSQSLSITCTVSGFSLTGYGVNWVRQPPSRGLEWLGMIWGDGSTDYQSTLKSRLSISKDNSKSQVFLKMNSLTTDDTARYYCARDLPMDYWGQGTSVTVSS VL: DIQMTQSPSSLSASVGGRVTITCKASQDINKYIAWYQHKPGKGPSLLIHYTSTLQPGVPSRFSGSGSGRDYSFSISNLQPEDIATYYCLQYAHLLTFGGGTKLEIKR
reported-result: 108000 M⁻¹ s⁻¹

These measurements were taken from patent US20150098939A1.
